target_or_test_system: T1, human IL13 R130Q (human, UniProt P35225 35-146, biotinylated (sites not given))
T1 construct: Peprotech; also called IL13R13Q; R111Q
T1 sequence (P35225 35-146 limits assumed, stated change not applied): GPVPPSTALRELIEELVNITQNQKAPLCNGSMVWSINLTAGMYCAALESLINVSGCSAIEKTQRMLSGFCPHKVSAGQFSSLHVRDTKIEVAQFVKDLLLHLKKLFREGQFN
assay_notes: Luminex competition, 80 pM biotin-IL13 R130Q binding to IL13Ra2-Fc beads
What IC50 was measured for each of the following?
One number for each entry, in nM.

>  <binder>
9E11 (designed binder, N-Cap-(AR)3-C-Cap) DLGKKLLEAARAGQDDEVRILMANGADVNASDIYGSTPLHLAARHGHLEIVEVLLKNGADVNANDMIGDTPLHLAAYHGHLEIVEVLLKHGADVNASDITGETPLHLAAHNGHLEIVEVLLKYGADVNAQDKFGKTAFDISIDNGNEDLAEILQKLN

>  <IC50, nM>
0.0058

$$$$
>  <binder>
7C6 (designed binder, N-Cap-(AR)3-C-Cap) DLGKKLLEAARAGQDDEVRILMANGADVNAMDKYGSTPLHLAARSGHLEIVEVLLKHGADVNATDFIGDTPLHLAAYHGHLEIVEVLLKHGADVNAEDITGETPLHLAAESGHLEIVEVLLKHGADVNAQDKFGKTAFDISIDNGNEDLAEILQKLN

>  <IC50, nM>
0.0106

$$$$
>  <binder>
7G11 (designed binder, ankyrin repeat protein) DLGKKLLEAARAGQDDEVRILMANGADVNATDEFDSTPLHLAARHGHLEIVEVLLKYGADVNAADFIGDTPLHLAAYRGHLEIVEVLLKCGVDVNADDHGDTPLHLAASMGHLEIVEVLLKNGADVNAQDKFGKTAFDISIDNGNEDLAEILQKLN

>  <IC50, nM>
0.0034

$$$$
>  <binder>
10A6 (designed binder, N-Cap-(AR)2-C-Cap, only 2 ARs) DLGKKLLEAARAGQDDEVRILMANGADVNAIDHFDSTPLHLAARHGHLEIVEVLLKNGADVNADDFLGDTPLHLAAYHGHLDIVEVLLKHGADVNAQDKFGKTAFDISIDNGNEDLAEILQKLN

>  <IC50, nM>
0.0075

$$$$
>  <binder>
6G11 (designed binder, N-Cap-(AR)3-C-Cap) DLGKKLLEAARAGQDDEVRILMANGADVNAEDILGITPLHLAAHHGHLEIVEVLLKHGADVNANDFAGYTPLHLAAVYGHLEIVEVLLKYGADVNATDAWGETPLHLAAYTGHLEIVEVLLKHDADVNAQDKFGKTAFDISIDNGNEDLAEILQKLN

>  <IC50, nM>
0.0101

$$$$
>  <binder>
5D12 (designed binder, N-Cap-(AR)3-C-Cap) DLGKKLLEAARAGQDDEVRILMANGADVNAVDDYGSTPLHLAARQGHLEIVEVLLKNGADVNADDFIGDTPLHLAAFKGHLEIVEVLLKNGADVNASDITGETPLHLAATAGHLEIVEVLLKHGADVNAQDKFGKTAFDISIDNGNEDLAEILQKLN

>  <IC50, nM>
0.0102

$$$$

Now look at this entry.
Entry under test: 7D7 (designed binder, N-Cap-(AR)3-C-Cap) DLGKKLLEAARAGQDDEVRILMANGADVNATDTYGSTPLHLAARHCHQEIVEVLLKHGADVNANDFIGDTPLHLAAWHGHLEIVEVLLKNGADVNAMDVTGETPLHLAAYHGHLDIVEVLLKNGADVNAQDKFGKTAFDISIDNGNEDLAEILQKLN . Its IC50 was 0.058
